# Tested on: HepaRG
# assay.method.text: LDH release cytotoxicity, % of total lysis control; higher = more cytotoxic
# experimental.conditions: 3.16228 µM; 48 h
Structures can show the parent of a compound that is named as a salt.
parameter: LDH release cytotoxicity (%)

{"compound": "O=P1(N(CCCl)CCCl)NCCCO1 (configuration not stated) [Cyclophosphamide monohydrate]", "readout.unit": "%", "numeric.readout": -1.5}
{"compound": "CCCc1ccccc1", "readout.unit": "%", "numeric.readout": 0.305}
{"compound": "COC(=O)c1ccccc1C(=O)O [Monomethyl phthalate]", "readout.unit": "%", "numeric.readout": -1.73}
{"compound": "CCCCCCCCC=CCCCCCCCC(=O)OCC(O)C1OCC(O)C1O (configuration not stated) [Sorbitan, mono-(9Z)-9-octadecenoate]", "readout.unit": "%", "numeric.readout": -1.48}
{"compound": "Cn1c(-c2ccccc2)cc(-c2ccccc2)[n+]1C [Difenzoquat metilsulfate]", "readout.unit": "%", "numeric.readout": -3.44}
{"compound": "COc1cnc(OC)n2nc(NS(=O)(=O)c3c(OCC(F)F)cccc3C(F)(F)F)nc12", "readout.unit": "%", "numeric.readout": -0.488}
{"compound": "ClC(Cl)c1ccccc1 [Benzal chloride]", "readout.unit": "%", "numeric.readout": -1.29}
{"compound": "CCCN(CCC)c1c([N+](=O)[O-])cc(S(N)(=O)=O)cc1[N+](=O)[O-]", "readout.unit": "%", "numeric.readout": -2.11}
{"compound": "Cc1cc(C2CC2)nc(Nc2ccccc2)n1", "readout.unit": "%", "numeric.readout": -0.24}
{"compound": "CCCCC(CC)COC(=O)CCCCC(=O)OCC(CC)CCCC (configuration not stated) [Bis(2-ethylhexyl)hexanedioate]", "readout.unit": "%", "numeric.readout": -2.66}
{"compound": "CC(C)(C)c1ccc(CSc2cnn(C(C)(C)C)c(=O)c2Cl)cc1", "readout.unit": "%", "numeric.readout": 17.6}
{"compound": "CCCOC(=O)NCCCN(C)C [Propamocarb hydrochloride]", "readout.unit": "%", "numeric.readout": 0}
{"compound": "CCCN(CCOc1c(Cl)cc(Cl)cc1Cl)C(=O)n1ccnc1", "readout.unit": "%", "numeric.readout": -0.716}
{"compound": "C1CC2OC2CC1C1CO1 (configuration not stated) [4-Vinyl-1-cyclohexene dioxide]", "readout.unit": "%", "numeric.readout": -1.29}
{"compound": "CC(COCC(C)OC(=O)c1ccccc1)OC(=O)c1ccccc1 (configuration not stated) [Di(propylene glycol) dibenzoate]", "readout.unit": "%", "numeric.readout": -1.58}
{"compound": "CC[C@H](C)[C@@H](C(=O)O)n1sc2ccccc2c1=O", "readout.unit": "%", "numeric.readout": -1.12}
{"compound": "CCOc1ccc2c(n1)C(=O)C(C(=O)NCc1ccccc1)C=N2 (configuration not stated)", "readout.unit": "%", "numeric.readout": -0.884}
